The reported measurements were obtained from paper PMC5719359.

ASSAY_SYSTEM: tubulin (Sus scrofa, UniProt P02550+P02554)
Construct: purified porcine tubulin; with alpha-tubulin (alpha/beta heterodimer)
ASSAY_SUMMARY: fluorescence colchicine competition assay; the IC50 is from the in vitro tubulin polymerization assay
pIC50: −log10 of the molar value.

| COMPOUND | ASSAY_SYSTEM | pIC50 |
| --- | --- | --- |
| COc1cc(OC)cc(N2CCN(C(=O)c3n[nH]nc3-c3ccccc3Cl)CC2)c1 [7p] | tubulin (Sus scrofa, UniProt P02550+P02554) | 5.69 |
